Entry source: paper PMC9569468

Test: in vitro
Run Conditions: African green monkey, Half maximal cytotoxic concentration (CC50)
Endpoint Label: CC50 (µM)
# unit: µM | format: bare number

Entry CN1C(=O)[C@@]2(C[C@@H](S(=O)(=O)c3ccccc3)[C@H]3CCCN32)c2ccccc21 has what CC50?
882

----------
Parameter CC50: see the listing below.
Test: in vitro
Run Conditions: African green monkey, Cytotoxicity (CC50, µM)

Reference set, count: 2
# Compound, CC50
rows = [
    ("O=C1Nc2ccc([N+](=O)[O-])cc2[C@]12C[C@@H](S(=O)(=O)c1ccccc1)[C@H]1C[C@H](O)CN12", "1100 µM"),
    ("CCC(CC)COC(=O)[C@H](C)N[P@](=O)(OC[C@H]1O[C@@](C#N)(c2ccc3c(N)ncnn23)[C@H](O)[C@@H]1O)Oc1ccccc1 [Remdesivir, reference compound]", "473 µM"),
]

Now for the compound whose CC50 we want.
Entry O=C1Nc2ccc(Br)cc2[C@]12C[C@@H](S(=O)(=O)c1ccccc1)[C@H]1C[C@H](O)CN12 has what CC50?
206 µM

----------
Mark True only for melting point values smaller than 200 °C; exact matches and larger values are False.

# Test Smiles, Classification
measured = [
    ("O=C1Nc2ccc(Br)cc2[C@]12C[C@@H](S(=O)(=O)c1ccccc1)[C@H]1C[C@H](O)CN12", "False"),
    ("O=C1Nc2ccc(Br)cc2[C@]12C[C@@H](S(=O)(=O)c1ccccc1)[C@H]1CCCN12", "False"),
]

Say whether its melting point is strictly beneath 200 °C. Entry: O=C1N(CCBr)c2ccccc2[C@]12C[C@@H](S(=O)(=O)c1ccccc1)[C@H]1CCCN12
True

Say whether its melting point is strictly beneath 200 °C. Entry: O=C1Nc2ccc(Cl)cc2[C@]12C[C@@H](S(=O)(=O)c1ccccc1)[C@H]1CCCN12
False

Say whether its melting point is strictly beneath 200 °C. Entry: COc1ccc2c(c1)[C@]1(C[C@@H](S(=O)(=O)c3ccccc3)[C@H]3CSCN31)C(=O)N2
True

Say whether its melting point is strictly beneath 200 °C. Entry: COc1ccc2c(c1)[C@]1(C[C@@H](S(=O)(=O)c3ccccc3)[C@H]3CCCN31)C(=O)N2
False

Say whether its melting point is strictly beneath 200 °C. Entry: O=C1Nc2ccc(Cl)cc2[C@]12C[C@@H](S(=O)(=O)c1ccccc1)[C@H]1CSCN12
False

Say whether its melting point is strictly beneath 200 °C. Entry: O=C1Nc2ccccc2[C@]12C[C@@H](S(=O)(=O)c1ccccc1)[C@H]1CCCN12
False

Say whether its melting point is strictly beneath 200 °C. Entry: O=C1Nc2ccc([N+](=O)[O-])cc2[C@]12C[C@@H](S(=O)(=O)c1ccccc1)[C@H]1CSCN12
True

----------
Test: in vitro
Run Conditions: African green monkey, Cytotoxicity (CC50, µM)
Endpoint Label: CC50
Answer format: number, then unit.

Reference set, count: 5
# Test Smiles, CC50
rows = [
    ("O=C1Nc2ccc([N+](=O)[O-])cc2[C@]12C[C@@H](S(=O)(=O)c1ccccc1)[C@H]1CSCN12", "289 µM"),
    ("COc1ccc2c(c1)[C@]1(C[C@@H](S(=O)(=O)c3ccccc3)[C@H]3CSCN31)C(=O)N2", "345 µM"),
    ("CN1C(=O)[C@@]2(C[C@@H](S(=O)(=O)c3ccccc3)[C@H]3CCCN32)c2ccccc21", "883 µM"),
    ("COc1ccc2c(c1)[C@]1(C[C@@H](S(=O)(=O)c3ccccc3)[C@H]3CCCN31)C(=O)N2", "571 µM"),
    ("O=C1Nc2ccc(Cl)cc2[C@]12C[C@@H](S(=O)(=O)c1ccccc1)[C@H]1CSCN12", "1040 µM"),
]

Entry O=C1Nc2ccc(Cl)cc2[C@]12C[C@@H](S(=O)(=O)c1ccccc1)[C@H]1CCCN12 has what CC50?
405 µM

Entry O=C1Nc2ccccc2[C@]12C[C@@H](S(=O)(=O)c1ccccc1)[C@H]1CCCN12 has what CC50?
326 µM

----------
Parameter CC50: see the listing below.
Test: in vitro
Run Conditions: African green monkey, Cytotoxicity (CC50, µM)
# unit: µM | format: bare number

Reference set, count: 2
# Test Smiles, CC50 [µM]
rows = [
    ("O=C1Nc2cc(Cl)ccc2[C@]12C[C@@H](S(=O)(=O)c1ccccc1)[C@H]1CSCN12", 222),
    ("O=C1Nc2cc(Cl)ccc2[C@]12C[C@@H](S(=O)(=O)c1ccccc1)[C@H]1CCCN12", 225),
]

Entry O=C1Nc2ccccc2[C@]12C[C@@H](S(=O)(=O)c1ccccc1)[C@H]1CSCN12 has what CC50?
1990

Entry O=C1Nc2ccc(Br)cc2[C@]12C[C@@H](S(=O)(=O)c1ccccc1)[C@H]1CCCN12 has what CC50?
200

Entry O=C1N(CCBr)c2ccccc2[C@]12C[C@@H](S(=O)(=O)c1ccccc1)[C@H]1CCCN12 has what CC50?
206
